# study_target: human dopamine D2 (Long form) receptors (Homo sapiens)
# Sequence (P14416 whole entry): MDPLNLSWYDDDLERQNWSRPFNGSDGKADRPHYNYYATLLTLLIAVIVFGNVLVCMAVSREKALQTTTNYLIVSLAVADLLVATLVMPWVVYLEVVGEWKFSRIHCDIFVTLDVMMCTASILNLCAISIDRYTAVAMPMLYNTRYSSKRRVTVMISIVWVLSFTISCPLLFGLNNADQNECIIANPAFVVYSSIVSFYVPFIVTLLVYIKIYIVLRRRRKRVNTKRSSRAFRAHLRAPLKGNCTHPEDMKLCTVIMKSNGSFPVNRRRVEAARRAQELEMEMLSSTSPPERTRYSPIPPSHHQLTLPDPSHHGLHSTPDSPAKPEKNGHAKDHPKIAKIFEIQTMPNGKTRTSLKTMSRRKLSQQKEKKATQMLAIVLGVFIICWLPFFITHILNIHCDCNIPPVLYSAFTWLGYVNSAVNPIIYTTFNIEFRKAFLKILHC
# experiment: biochemical
pKi: −log10 of the molar value. Structures can show the parent of a compound that is named as a salt.
Each entry below carries its reported pKi.
observed_property: pKi

* O=c1ccc2cc(CNCCOc3ccc(Cl)cc3)ccc2o1 | 5.31
* Cc1ccc(OCCNCc2ccc3oc(=O)ccc3c2)cc1 | 5.23
* c1ccc(OCCCNCCOc2ccc3ncccc3c2)cc1 [Example 2a, hydrochloride] | 6.24
* c1ccc(OCCCNCCOc2ccc3occc3c2)cc1 [Example 3b, hydrochloride] | 6.30
* Cc1ccc(OCCNCc2ccc3ccc(=O)oc3c2)cc1 | 6.71
* O=c1ccc2ccc(CNCCOc3ccc(Cl)cc3)cc2o1 | 6.54
* O=c1ccc2cc(CNCCCOc3ccccc3)ccc2o1 | 5.97
* Cc1cc(=O)oc2cc(OCCNCCCOc3ccccc3)ccc12 [Example 3, Hydrochloride] | 6.64
* O=c1ccc2ccc(OCCNCCCOc3ccccc3)cc2o1 [Example 2c, hydrochloride] | 6.60
